Test system: CAKI-1 renal
Assay: NCI tumour cell line growth inhibition, 48 h
Experimental Readout: TGI (µM)
Numbers only, in µM.

Past entries and their recorded results:
COc1cccc(/C=C/C(=O)c2cc3c(N)c(C(=O)Nc4cccc5ccccc45)sc3nc2C)c1: 6.34
CC1OC2OC3C(OCC(O)C3O)OC(=O)[C@]34CCC(C)(C)CC3C3=CCC5[C@@]6(C)C[C@H](O)[C@H](OC7OC(CO)C(O)C(O)C7OC7OCC(OC(=O)CC(C)(O)CC(=O)OC1C(OC1OC(CO)C(O)C(O)C1O)C2O)C(O)C7O)[C@@](C)(CO)C6CC[C@@]5(C)[C@]3(C)CC4 (stereo not given in full): 16.1
COc1ccc(C(O)CC(O)(C(F)(F)F)C(F)(F)F)cc1 (stereo not given): 55.1

Continue with the next compound.
INPUT: Reported TGI, compound O=C(/C=C/c1cccs1)c1ccccc1Cl : ____
OUTPUT: 23
